In this section we review reported MFI values for a set of binders.
target: T1, human CD3 (human, UniProt P07766 23-207; P09693 23-182; P04234 22-171); test: flow cytometry, hybridoma supernatant on CD3+ Jurkat cells
T1 construct: whole, on cells; also called CD3 on Jurkat T cells; CD3 on primary human T cells
valueKind: MFI (MFI)

{"binder": "F332-7C5 (antibody, mouse IgG2a, V domains shown, also called F332-7C5-2; F332-7C5 (5E12, 10A8)) VH: QVQLQQPGAELGKPGTSVKLSCKASGYTFTSYWMHWVKQRPGQGLEWIGNINPSSGITNYNERFKNKATLTVDKSSTTAYMQLSILTSEDSAVYYCSRDISGQYYFNFWGQGTTLTVSS VL: DIVMSQSPSSLAVSAGEKVTMSCKSSQSLLNSRTRKNYLAWYQQKPGQSPKLLIYWASTRESGVPDRFTGTGSGTDFTLTISSVQAEDLAVYYCKQSYNLRTFGGGTKLEIK", "endpointResult": 334}
{"binder": "F332-13B4 (antibody, mouse IgG2a, V domains shown, also called F332-13B4-2) VH: QVQLQQSGPELVKPGASVKISCKASGYSFTNSYVHWVKQTPGQGLEWIGWIYPGSTNIKYNEKFKGKATLTADTSSSTVYMQLSSLTSEDSAVYFCARDGSYFFDYWGQGTTLTVSS VL: DIVMSQSPSSLAVSAGEKVTMTCKSSQSLLNSRTRKNYLAWYQQKPGQSPKLLIYWASTRESGVPDRFTGSGSGTDFTLTISSVQAEDLAVYYCKQSYILRTFGGGTKLEIK", "endpointResult": 373}
{"binder": "F332-1E2 (antibody, mouse IgG2a, V domains shown, Sister clone 8C5 shares the same entries; also called F332-1E2-2; F332-1E2 (8C5)) VH: QVQLQQPGAELGKPGTSVKLSCKASGYTFTSYWIHWVKQRPGQGLEWVGNINPNSGSINYNEKFKNKATLTVDKSSSTAYMQLSTLTSEDFAVYYCTRDTSGQYYFDYWGQGTTLTVSS VL: DIVMSQSPSSLAVSAGERVTMSCKSSQSLLNSRTRKNYLAWYQQKPGQSPKLLIYWASTRESGVPDRFTGSGSGTDFTLTISSVQAEDLAVYYCIQSYHLRTFGGGTKLEIK", "endpointResult": 319}
